Where do these numbers come from? They come from ChEMBL document CHEMBL4229518.

Test system: Enterobacter cloacae
experiment.description: Antimicrobial activity against Enterobacter cloacae ATCC 13047 after 18 to 20 hrs by microbroth dilution method
Type: functional
details: subsp. cloacae ATCC 13047
measured.attribute: MIC

>>> recorded_value("CC(C)CC1NC(=O)C(C(=O)NCCC(=O)N[C@@H](C(=O)N[C@@H]2C(=O)N3[C@@H]2SC(C)(C)[C@@H]3C(=O)O)c2ccccc2)=C1O (some centres undefined)")
"> 200 µg/mL"

## Task GET /values?readout=MIC&item= CC(=O)OCC1=C(C(=O)O)N2C(=O)[C@@H](NC(=O)CCNC(=O)C3=C(O)C(CC(C)C)NC3=O)[C@H]2SC1 (some centres undefined)
## Result > 200 µg/mL

## Task GET /values?readout=MIC&item= CC1=C(C(=O)O)N2C(=O)[C@@H](NC(=O)[C@H](N)c3ccccc3)[C@H]2SC1 [CEPHALEXIN ANHYDROUS]
## Result > 200 µg/mL

## Task GET /values?readout=MIC&item= CC(C)CC1NC(=O)C(C(=O)N[C@@H](C(=O)N[C@@H]2C(=O)N3[C@@H]2SC(C)(C)[C@@H]3C(=O)O)c2ccccc2)=C1O (some centres undefined)
## Result > 200 µg/mL
